# System: ATP;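 note: ATP exposure 15 min at 22 °C before imaging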
# ASSAY_INFO: switch fluorescence ratio, 500 uM ATP over buffer (Cy3 cluster intensity, sum of 5 cycles each) (fold (ratio)); higher = stronger signal-on switching upon ATP binding; sequences stand for … in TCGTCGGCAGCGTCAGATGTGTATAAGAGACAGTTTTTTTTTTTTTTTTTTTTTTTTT…TC
# TEST_SETTINGS: aptamer strand: ATP DNA aptamer (quencher-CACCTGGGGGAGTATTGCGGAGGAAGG + anchor), 100 nM annealed; ATP concentration: 500 uM
Provide the reported switch fluorescence ratio of each item.
One number for each entry.

MONOMER_SEQUENCE: GTTTACAGGC
switch fluorescence ratio: 0.988

MONOMER_SEQUENCE: TACGGGTTAG
switch fluorescence ratio: 1.03

Batch request: switch fluorescence ratio for each of the following sequences.
1. AGTTTGCGGG
2. AGGGCAATGT
3. GTAAAAATTT
4. ATAGTGGGTG
5. ATATAAGTAG
6. TTTGACCAGG
7. AATGAGGGCG

Response line:
[1.01, 1.11, 1.06, 0.997, 1.03, 1.02, 0.983]

###

# Tested on: ATP;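 note: ATP exposure 15 min at 22 °C before imaging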
# ASSAY_INFO: switch fluorescence ratio, 500 uM ATP over buffer (Cy3 cluster intensity, sum of 5 cycles each) (fold (ratio)); higher = stronger signal-on switching upon ATP binding; sequences stand for … in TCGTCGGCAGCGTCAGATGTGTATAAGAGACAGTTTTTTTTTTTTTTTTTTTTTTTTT…TC
# TEST_SETTINGS: aptamer strand: ATP DNA aptamer (quencher-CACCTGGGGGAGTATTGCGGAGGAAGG + anchor), 100 nM annealed; ATP concentration: 500 uM
Provide the reported switch fluorescence ratio of each item.
Numbers only.

The following sequences have reported results that may help.
MONOMER_SEQUENCE: TATGTCTCGC
switch fluorescence ratio: 0.995

MONOMER_SEQUENCE: TTAACGGGCT
switch fluorescence ratio: 1.01

MONOMER_SEQUENCE: GGTGGGGGGT
switch fluorescence ratio: 0.989

MONOMER_SEQUENCE: AAGTTAGGTC
switch fluorescence ratio: 0.969

MONOMER_SEQUENCE: GGGAGAACGA
switch fluorescence ratio: 0.984

Batch request: switch fluorescence ratio for each of the following sequences.
1. AACCGTTGGT
2. TCCTGAGTTT
3. TATGGAAACG

Response line:
1.01
0.991
0.981

###

Provide the reported switch fluorescence ratio of each item.
# System: ATP;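 note: ATP exposure 15 min at 22 °C before imaging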
# ASSAY_INFO: switch fluorescence ratio, 500 uM ATP over buffer (Cy3 cluster intensity, sum of 5 cycles each) (fold (ratio)); higher = stronger signal-on switching upon ATP binding; sequences stand for … in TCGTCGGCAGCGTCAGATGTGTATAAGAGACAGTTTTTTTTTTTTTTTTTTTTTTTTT…TC
# TEST_SETTINGS: aptamer strand: ATP DNA aptamer (quencher-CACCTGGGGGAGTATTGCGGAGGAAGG + anchor), 100 nM annealed; ATP concentration: 500 uM
Give bare numbers.

The following sequences have reported results that may help.
MONOMER_SEQUENCE: GATATGTTGA
switch fluorescence ratio: 1
--
MONOMER_SEQUENCE: GAGTGAAAGT
switch fluorescence ratio: 0.99
--
MONOMER_SEQUENCE: TTGGGCAGGA
switch fluorescence ratio: 1.06
--
MONOMER_SEQUENCE: AAAATAGATT
switch fluorescence ratio: 1.03
--
MONOMER_SEQUENCE: AAAAGTTACA
switch fluorescence ratio: 1.03
--
MONOMER_SEQUENCE: TATGTTCACG
switch fluorescence ratio: 0.992

Batch request: switch fluorescence ratio for each of the following sequences.
1. TCTAAGTTA
2. TTTTATGAGA
3. TTAAGGTGTA
4. CATGAAAGAC
5. CTGGGGGCGC

Response line:
[0.998, 0.978, 1.1, 1.05, 0.996]

Batch request: switch fluorescence ratio for each of the following sequences.
1. TGATACTGAT
2. GCCTTTTGCG
3. GCGCCGTGGC
4. TTTTTTTCGA
5. AATAATGGGG
6. TTTGAAAGGA
7. TGGGTGCCGA

Response line:
1. 1.02
2. 1.01
3. 0.99
4. 1.01
5. 0.981
6. 1.01
7. 0.989

Batch request: switch fluorescence ratio for each of the following sequences.
1. AGGTGCAGGC
2. TGTATTTAGA
3. GAAGGGGTCC

Response line:
1: 0.863; 2: 1.02; 3: 1

Batch request: switch fluorescence ratio for each of the following sequences.
1. TTCGGTAGCG
2. ATTCTCTTAT
3. TTTTCCCTGG

Response line:
[0.996, 1.02, 1.46]

Batch request: switch fluorescence ratio for each of the following sequences.
1. TGTTTTGGCA
2. AAATTCGGCG
3. TTTTTATATC
4. GACGTAGGTC
5. ATTTTGCAAT
6. TTTTACTTTA
7. CGGGTGCCGT
8. GGATATTCCA

Response line:
1. 0.996
2. 1.01
3. 0.99
4. 1
5. 1.27
6. 1.06
7. 1.06
8. 1.01

Batch request: switch fluorescence ratio for each of the following sequences.
1. AGCTAGGGGG
2. TAGCGGTCTC

Response line:
1. 0.989
2. 1.03

Batch request: switch fluorescence ratio for each of the following sequences.
1. CGTAATAAGG
2. GGATGAGCGA
3. ATTCTGGAAT
4. TGGGGTATAC
5. GTTTCGCGA
6. TGTTAGTGGT

Response line:
[0.988, 1.18, 1.02, 1.02, 1.14, 1.01]

Batch request: switch fluorescence ratio for each of the following sequences.
1. TGACATGGTG
2. TTAATTCTAC
3. AACAGCACGA
4. ATGTAGCATG
5. ATTGGTATCT
6. GAGATGGGGT

Response line:
[0.976, 1.04, 1.28, 1.04, 0.979, 0.995]
